system: Plasmodium falciparum; experiment: Screen against P. falciparum Asexual Blood Stage (ABS), at 5uM; format: functional, Dd2; conditions: tested at 5 uM
Among all 65,000 compounds or so, about 2,100 (3.2%) showed an effect of 50% or more. The median lay at about -52%. This is one part of a sample in which strong results are shown more often than they occur.
Documented INHIBITION across a set of compounds
Field: numeric (%). Do not append units.

Here are 4 compounds together with their reported answers.
| COMPOUND | STUDY TARGET | INHIBITION (%) |
| --- | --- | --- |
| Cc1noc(C)c1CN(C)C(=O)NC1CCOCC1 | Plasmodium falciparum | 16 |
| CC(=O)N1CCC(NC(=O)N(C)Cc2c(C)noc2C)CC1 | Plasmodium falciparum | 51.4 |
| COCc1ncc(CN2CC[C@@H](NC(=O)c3cccnc3)[C@H](O)C2)cn1 | Plasmodium falciparum | -35.5 |
| O=C(NCCN1CCOCC1)C(OC1CCCC1)c1ccccc1 (configuration not stated) | Plasmodium falciparum | -78 |

query: Given CCCc1ccc(C(=O)N2Cc3c(Cn4ccnc4)nn(C)c3C2)cc1 , state its recorded INHIBITION.
result: -64.1

query: Given Cc1cc(N2CCCC(N(C)C)C2)n2nccc2n1 (configuration not stated) , state its recorded INHIBITION.
result: -65.1

query: Given CCc1ccc(CN(C)C(=O)C(c2ccccc2F)N(C)C)nc1 (configuration not stated) , state its recorded INHIBITION.
result: -0.644

query: Given Cc1noc(C)c1CN(C)C(=O)NC1CCN(C2CC2)CC1 , state its recorded INHIBITION.
result: -155

query: Given Cc1cc(CNC(=O)c2cnoc2C)c(C)o1 , state its recorded INHIBITION.
result: -78

###

Documented INHIBITION across a set of compounds
tested on: Plasmodium falciparum; experiment: Screen against P. falciparum Asexual Blood Stage (ABS), at 5uM; assay type: functional, Dd2; conditions: tested at 5 uM
Hit rate of the full screen: of about 65,000 compounds, about 2,100 (3.2%) showed an effect of 50% or more. The median lay at about -52%. Only a selection was taken, and strong results are over-represented in it overall.
Field: numeric (%). Do not append units.

Here are 2 compounds together with their reported answers.
| COMPOUND | INHIBITION / % |
| --- | --- |
| COc1cc(NCc2ncc[nH]2)ccc1Br | -173 |
| CCOCCN1CCN(Cc2cccc(C(=O)N(C)C)c2)CC1 | -117 |

query: Given Cc1nc(N2CCCC2)nc2c1CN(C(=O)N1CCOCC1)CC2 , state its recorded INHIBITION.
result: -70.2

query: Given CCOCC1c2c(cnn2C)CCN1C(=O)c1ccncn1 (configuration not stated) , state its recorded INHIBITION.
result: -224

query: Given CC(=O)N1CCc2nc(N3CCCC3)nc(C)c2C1 , state its recorded INHIBITION.
result: 53.8

query: Given CCC(O)(CNCc1ncc[nH]1)c1ccc(Br)cc1 (configuration not stated) , state its recorded INHIBITION.
result: 67.5

query: Given Cc1nc(N2CCCC2)nc2c1CN(C(=O)N(C)C)CC2 , state its recorded INHIBITION.
result: -67.8

query: Given Cc1nc(N2CCOCC2)nc2c1CCN(C(=O)N1CCCC1)CC2 , state its recorded INHIBITION.
result: -112

query: Given Cc1nc(N2CCCC2)nc2c1CCN(C(=O)N1CCCC1)CC2 , state its recorded INHIBITION.
result: 47

query: Given O=C(O)CC(NC(=O)c1ccccc1OC(F)F)c1cccs1 (configuration not stated) , state its recorded INHIBITION.
result: -127

query: Given Cc1nc(N2CCOCC2)nc2c1CN(C(=O)C(C)C)CC2 , state its recorded INHIBITION.
result: 56.2

query: Given CCC(O)(CNCc1ccncc1)c1ccc(Br)cc1 (configuration not stated) , state its recorded INHIBITION.
result: 8.37

###

tested on: Plasmodium falciparum; test: Screen against P. falciparum Asexual Blood Stage (ABS), at 5uM; type: functional, Dd2; conditions: tested at 5 uM
About 2,100 (3.2%) of roughly 65,000 compounds showed an effect of 50% or more. The median lay at about -52%. The full list was thinned out, with strong results kept by preference.
Each entry belongs to exactly one class, chosen by where its INHIBITION falls: group 1 (below -50%), group 2 (-50% to below 30%), group 3 (30% or more)

query: Band assignment needed for Cc1c[nH]nc1C1CCCN1Cc1ccncc1 (centres undefined) please.
result: group 2

query: Band assignment needed for COCCO[C@H]1CCN(Cc2ccsc2)[C@H]1Cc1cccnc1 please.
result: group 2

query: Band assignment needed for Cc1ccc(C)c(OC2CCN(C(=O)CNc3ccccc3Cl)CC2)c1 please.
result: group 1

###

tested on: Plasmodium falciparum; test: Screen against P. falciparum Asexual Blood Stage (ABS), at 5uM; format: functional, Dd2; details: tested at 5 uM
About 2,100 (3.2%) of roughly 65,000 compounds showed an effect of 50% or more. The median lay at about -52%. What follows is part of a selection rich in strong results, with near analogues and random picks from the rest.
QUANTITY: INHIBITION (%)
Field: numeric (%). Do not append units.

| COMPOUND | STUDY TARGET | READOUT UNITS | INHIBITION |
| --- | --- | --- | --- |
| O=C(CCN1CCCC1C1CCCCC1)N1CCc2sccc2C1 (stereo unspecified) | Plasmodium falciparum | % | 59.9 |
| CC(C)C(=O)N1CCC([C@@H]2C[C@H](C(F)F)n3ncnc3N2)CC1 | Plasmodium falciparum | % | 12.2 |
| CN(Cc1cn2ccccc2c1C#N)C1CCCN(c2cccnn2)C1 (stereo unspecified) | Plasmodium falciparum | % | -92.9 |
| O=C(CCC(=O)N1CCCC1c1cccs1)N1CCc2sccc2C1 (stereo unspecified) | Plasmodium falciparum | % | -117 |
| Cn1cc(C2CCCN2CCC(=O)N2CCc3sccc3C2)cn1 (stereo unspecified) | Plasmodium falciparum | % | -37.7 |
| O=C(CN1CCCC1c1cccs1)N1CCc2sccc2C1 (stereo unspecified) | Plasmodium falciparum | % | 3.62 |
| O=C(CCN1CCCC1c1cccs1)N1CCc2sccc2C1 (stereo unspecified) | Plasmodium falciparum | % | 50.8 |
| Cc1ccccc1NC(=O)N1CCN(Cc2noc(C3CC3)n2)CC1 | Plasmodium falciparum | % | -69.4 |

query: Given CNC(=O)C1(c2cnccn2)CCCN1C(=O)c1cccc(C)n1 (stereo unspecified) , state its recorded INHIBITION.
result: -80.1

query: Given COc1ccc(CNCCC(=O)N2CCc3sccc3C2)cc1O , state its recorded INHIBITION.
result: 36.4

query: Given COc1ccccc1-c1ccc(C(=O)N2C[C@@H]3CC[C@H]2CN(C)C3)cc1 , state its recorded INHIBITION.
result: -93.3

###

test system: Plasmodium falciparum; assay: Screen against P. falciparum Asexual Blood Stage (ABS), at 5uM; type: functional, Dd2; conditions: tested at 5 uM
In all, about 65,000 compounds went through this assay and about 2,100 (3.2%) showed an effect of 50% or more. The median lay at about -52%. The entries come from a sample that favours strong results as a whole.
Documented INHIBITION across a set of compounds
Field: numeric (%). Do not append units.

Here are 6 compounds together with their reported answers.
| COMPOUND | STUDY TARGET | READOUT UNITS | INHIBITION |
| --- | --- | --- | --- |
| CCCn1nnc2c(sc3nc(N4CCOCC4)c4c(c32)CCC4)c1=O | Plasmodium falciparum | % | -102 |
| Cc1cc(C)n(C2CN(CC(=O)N(C)Cc3ccsc3)C2)n1 | Plasmodium falciparum | % | 26.5 |
| CCSc1ncc(-c2cc(C3CCC3)nc(N)c2C#N)cn1 | Plasmodium falciparum | % | -28.9 |
| Cc1nc2ccccc2nc1CN1CCCC1c1c(C)nn(C)c1C (stereo not drawn) | Plasmodium falciparum | % | 58.1 |
| Cc1ccccc1N1CC2(CCN(c3nncs3)C2)CC1=O (stereo not drawn) | Plasmodium falciparum | % | -152 |
| Cc1nc(C)n(CC2CCCCN2Cc2ncc(C(C)(C)C)o2)n1 (stereo not drawn) | Plasmodium falciparum | % | -43.5 |

query: Given COc1ccc(CC(=O)NC(C)c2nc3cccnc3n2C(C)C)cc1 (stereo not drawn) , state its recorded INHIBITION.
result: -100

query: Given CNC(=O)c1cn2cc(-c3cccc(Cl)c3)n(CC3CC3)c(=O)c2n1 , state its recorded INHIBITION.
result: 19.5

query: Given CCSc1ncc(-c2cc(C3CC3)nc(N)c2C#N)cn1 , state its recorded INHIBITION.
result: 4.79

query: Given NC(=O)c1cn2cc(-c3ccccc3Cl)n(CC3CC3)c(=O)c2n1 , state its recorded INHIBITION.
result: -27.5

query: Given Cc1nc(CN2CCN(CCCc3nc4ccccc4o3)CC2)no1 , state its recorded INHIBITION.
result: -77.4

query: Given Cc1cc(C(=O)N2CCCC(N3CCNC3=O)C2)nn1C(C)(C)C (stereo not drawn) , state its recorded INHIBITION.
result: -37.9

The reported numbers originate from ChEMBL document CHEMBL4513216.
